tested on: CCRIS mutagenicity, Ames/micronucleus/aberration tests; experiment: CCRIS mutagenicity studies; conditions: Test System: AMES SALMONELLA TYPHIMURIUM; Strain/Indicator: TA100; Metabolic Activation: RAT, LIVER, S-9, AROCLOR 1254 (10%); Method: PREINCUBATION
Calls of active or inactive are those of the source. No rule for the calls is given here.
REPORTED_METRIC: mutagenic call

COMPOUND | REPORTED_METRIC | MEASURED
CC(C)CCC(C)Nc1ccc(NC(C)CCC(C)C)cc1 (configuration not stated) | mutagenic call | inactive; negative
Oc1cccc(Nc2ccccc2)c1 | mutagenic call | inactive; negative
c1cc(OCC2CO2)cc(OCC2CO2)c1 (configuration not stated) | mutagenic call | active; positive
c1ccc2c(c1)ccc1ccccc12 | mutagenic call | inactive; negative
Cc1ccc(N)cc1O | mutagenic call | active; positive

Hi, could you look up mutagenic call for each item in my list?
1. O=C(O)c1ccc2c(c1)C(=O)OC2=O
2. CN(C)C(=S)N(C)C

inactive; negative
inactive; negative

Origin of measurements: PubChem BioAssay AID1259407
